IC50, human PI3Kβ (Homo sapiens), per-entry values.
measured_quantity: IC50 (nM)

>  <molecule>
Nc1ncc(-c2cc(N3C(=O)OC[C@@H]3CCO)nc(N3CCOCC3)n2)c(C(F)(F)F)n1

>  <target_under_test>
human PI3Kβ (Homo sapiens)
Sequence (P42338 2-1070 limits assumed): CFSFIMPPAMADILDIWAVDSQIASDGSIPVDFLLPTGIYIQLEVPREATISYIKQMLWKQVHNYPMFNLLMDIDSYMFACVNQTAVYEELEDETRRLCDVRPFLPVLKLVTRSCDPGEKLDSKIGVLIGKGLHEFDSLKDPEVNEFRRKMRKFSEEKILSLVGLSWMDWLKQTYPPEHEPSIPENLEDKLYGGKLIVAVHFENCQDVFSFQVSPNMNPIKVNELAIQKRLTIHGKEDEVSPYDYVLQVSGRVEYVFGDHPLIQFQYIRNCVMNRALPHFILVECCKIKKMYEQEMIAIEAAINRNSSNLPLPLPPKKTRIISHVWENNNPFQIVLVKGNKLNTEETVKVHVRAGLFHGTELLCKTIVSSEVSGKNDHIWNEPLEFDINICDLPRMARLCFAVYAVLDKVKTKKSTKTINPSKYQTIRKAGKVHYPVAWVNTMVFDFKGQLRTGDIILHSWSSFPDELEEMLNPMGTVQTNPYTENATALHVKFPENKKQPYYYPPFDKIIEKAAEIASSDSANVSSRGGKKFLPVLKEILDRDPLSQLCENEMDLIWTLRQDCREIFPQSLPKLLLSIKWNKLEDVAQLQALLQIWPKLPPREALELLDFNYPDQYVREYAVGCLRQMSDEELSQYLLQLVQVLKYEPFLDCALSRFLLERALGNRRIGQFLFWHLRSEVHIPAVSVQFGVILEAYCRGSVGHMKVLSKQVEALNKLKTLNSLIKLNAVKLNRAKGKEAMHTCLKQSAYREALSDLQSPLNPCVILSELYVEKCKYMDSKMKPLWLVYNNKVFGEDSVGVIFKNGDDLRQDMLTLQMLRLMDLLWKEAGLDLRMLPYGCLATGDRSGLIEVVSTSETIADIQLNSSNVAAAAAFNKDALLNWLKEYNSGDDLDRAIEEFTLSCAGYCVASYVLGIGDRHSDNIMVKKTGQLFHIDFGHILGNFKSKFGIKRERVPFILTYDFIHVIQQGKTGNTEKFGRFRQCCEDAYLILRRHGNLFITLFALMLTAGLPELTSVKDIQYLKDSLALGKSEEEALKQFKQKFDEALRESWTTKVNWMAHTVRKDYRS

>  <unit_name>
nM

>  <IC50>
41

$$$$
>  <molecule>
[2H]C1([2H])OC([2H])([2H])C([2H])([2H])N(c2nc(-c3cnc(N)nc3C(F)(F)F)cc(N3C(=O)O[C@H](C)[C@@H]3CO)n2)C1([2H])[2H]

>  <target_under_test>
human PI3Kβ (Homo sapiens)

>  <unit_name>
nM

>  <IC50>
4

$$$$
>  <molecule>
Nc1ncc(-c2cc(N3C(=O)OC4C(O)CCC43)nc(N3CCOCC3)n2)c(C(F)(F)F)n1 (single isomer, unassigned) [Example 22B]

>  <target_under_test>
human PI3Kβ (Homo sapiens)

>  <unit_name>
nM

>  <IC50>
58

$$$$
>  <molecule>
C[C@H]1OC(=O)N(c2cc(-c3cnc(N)nc3C(F)(F)F)nc(N3CCOCC3)n2)[C@H]1COC=O

>  <target_under_test>
human PI3Kβ (Homo sapiens)

>  <unit_name>
nM

>  <IC50>
49

$$$$

A. C[C@H]1C(CC(C)(C)O)OC(=O)N1c1cc(-c2cnc(N)nc2C(F)(F)F)nc(N2CCOCC2)n1 (mixture of isomers)
B. Nc1ncc(-c2cc(N3C(=O)O[C@@H]4[C@@H](O)CC[C@@H]43)nc(N3CCOCC3)n2)c(C(F)(F)F)n1 (racemic)
C. CC1(C)OC(=O)N(c2cc(-c3cnc(N)nc3C(F)(F)F)nc(N3CCOCC3)n2)[C@H]1CO
D. Nc1ncc(-c2cc(N3CCOC3=O)nc(N3CCOCC3)n2)c(C(F)(F)F)n1 [Example 11, reference compound]
E. Nc1ncc(-c2cc(N3C(=O)O[C@H]4CCCC[C@@H]43)nc(N3CCOCC3)n2)c(C(F)(F)F)n1
## Task Order each entry by recorded IC50, climbing from the minimum. Field: ranking. Enter the labels in the order requested.
## Result E, D, C, B, A
(E: 7 nM, D: 12 nM, C: 20 nM, B: 48 nM, A: 124 nM)

P. Nc1ncc(-c2cc(N3C(=O)OC4C(O)CCC43)nc(N3CCOCC3)n2)c(C(F)(F)F)n1 (single isomer, unassigned) [Example 22A]
Q. C[C@@H]1OC(=O)N(c2cc(-c3cnc(N)nc3C(F)(F)F)nc(N3CCOCC3)n2)[C@H]1CO
## Task Select the item whose IC50 value is smaller, choosing between P and Q . Output the label that corresponds to your choice.
## Result Q
(Q: 7 nM, P: 86 nM)

====

# target_under_test: human PI3Kα (Homo sapiens)
# Construct: made in house
# Sequence (P42336 with tags, fused parts or gaps limits assumed): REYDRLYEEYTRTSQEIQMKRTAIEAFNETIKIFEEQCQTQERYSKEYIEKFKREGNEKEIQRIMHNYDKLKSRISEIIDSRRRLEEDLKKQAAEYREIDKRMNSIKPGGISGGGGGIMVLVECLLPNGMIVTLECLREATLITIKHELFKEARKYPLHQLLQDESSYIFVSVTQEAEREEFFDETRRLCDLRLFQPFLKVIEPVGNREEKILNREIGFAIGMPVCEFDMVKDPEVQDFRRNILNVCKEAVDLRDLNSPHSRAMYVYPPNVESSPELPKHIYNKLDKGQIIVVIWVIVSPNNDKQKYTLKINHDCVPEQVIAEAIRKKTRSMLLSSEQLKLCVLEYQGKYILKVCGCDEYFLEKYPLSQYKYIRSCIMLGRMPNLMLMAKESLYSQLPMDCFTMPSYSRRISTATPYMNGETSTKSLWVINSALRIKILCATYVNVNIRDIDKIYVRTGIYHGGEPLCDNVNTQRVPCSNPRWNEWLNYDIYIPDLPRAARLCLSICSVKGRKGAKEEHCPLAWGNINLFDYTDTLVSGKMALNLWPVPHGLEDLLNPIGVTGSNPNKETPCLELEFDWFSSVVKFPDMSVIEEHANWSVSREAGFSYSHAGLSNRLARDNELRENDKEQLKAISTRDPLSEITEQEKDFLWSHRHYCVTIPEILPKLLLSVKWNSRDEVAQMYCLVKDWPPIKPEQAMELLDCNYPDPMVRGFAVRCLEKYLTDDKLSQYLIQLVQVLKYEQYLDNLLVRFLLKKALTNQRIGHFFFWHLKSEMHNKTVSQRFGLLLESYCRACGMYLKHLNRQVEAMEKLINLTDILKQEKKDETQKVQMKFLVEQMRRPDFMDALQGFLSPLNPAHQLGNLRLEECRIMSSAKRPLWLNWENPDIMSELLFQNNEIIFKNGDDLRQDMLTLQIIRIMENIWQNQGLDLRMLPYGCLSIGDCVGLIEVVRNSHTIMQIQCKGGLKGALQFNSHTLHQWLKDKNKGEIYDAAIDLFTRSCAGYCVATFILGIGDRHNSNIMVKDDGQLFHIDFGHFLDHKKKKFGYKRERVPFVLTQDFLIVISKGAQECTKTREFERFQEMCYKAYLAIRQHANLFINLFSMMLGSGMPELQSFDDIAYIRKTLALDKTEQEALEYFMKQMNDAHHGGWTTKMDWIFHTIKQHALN
# procedure_details: Biochemical PI3Kalpha (KinaseGlo luminescent kinase assay)
# run_conditions: biochemical, 1 μM ATP, mean of n measurements
measured_quantity: PI3Ka/ IC50 (umol I-1)

P. CC1(C)OC(=O)N(c2cc(-c3cnc(N)nc3C(F)(F)F)nc(N3CCOCC3)n2)[C@H]1CO
Q. COC[C@H]1COC(=O)N1c1cc(-c2cnc(N)nc2C(F)(F)F)nc(N2CCOCC2)n1
## Task Pick the one with the larger PI3Ka/ IC50: P vs Q Output the label that corresponds to your choice.
## Result P

P. CC1(CO)COC(=O)N1c1cc(-c2cnc(N)nc2C(F)(F)F)nc(N2CCOCC2)n1 (racemic)
Q. C[C@H]1COCCN1c1nc(-c2cnc(N)nc2C(F)(F)F)cc(N2C(=O)OC[C@@H]2C)n1
## Task Pick the one with the larger PI3Ka/ IC50: P vs Q Output the label that corresponds to your choice.
## Result Q

A. C[C@H]1CN(c2cc(-c3cnc(N)nc3C(F)(F)F)nc(N3CCOCC3)n2)C(=O)O1
B. [2H]C1([2H])OC([2H])([2H])C([2H])([2H])N(c2nc(-c3cnc(N)nc3C(F)(F)F)cc(N3C(=O)OC[C@@H]3C)n2)C1([2H])[2H]
## Task Select the item whose PI3Ka/ IC50 value is smaller, choosing between A and B . Output the label that corresponds to your choice.
## Result B
(B: 0.017 umol I-1, A: 0.030 umol I-1)

I. Nc1ncc(-c2cc(N3C[C@@H](CO)OC3=O)nc(N3CCOCC3)n2)c(C(F)(F)F)n1
II. C[C@H]1COC(=O)N1c1cc(-c2cnc(N)nc2C(F)(F)F)nc(N2CCOCC2)n1
## Task Select the item whose PI3Ka/ IC50 value is smaller, choosing between I and II . Output the label that corresponds to your choice.
## Result II

====

pIC50, PI3Kgamma (Homo sapiens), per-entry values.
pIC50: −log10 of the molar value.
measured_quantity: pIC50

Use these answered entries as a reference point.
>  <molecule>
[2H]C1([2H])OC([2H])([2H])C([2H])([2H])N(c2nc(-c3cnc(N)nc3C(F)(F)F)cc(N3C(=O)OC[C@@H]3C)n2)C1([2H])[2H]

>  <pIC50>
6.48

$$$$
>  <molecule>
Nc1ncc(-c2cc(N3C(=O)OC[C@@H]3CCO)nc(N3CCOCC3)n2)c(C(F)(F)F)n1

>  <pIC50>
5.95

$$$$
>  <molecule>
Nc1ncc(-c2cc(N3C(=O)O[C@H]4CCCC[C@@H]43)nc(N3CCOCC3)n2)c(C(F)(F)F)n1

>  <pIC50>
6.62

$$$$

P. C[C@H]1COC(=O)N1c1cc(-c2cnc(N)nc2C(F)(F)F)nc(N2CCOCC2)n1
Q. Nc1ncc(-c2cc(N3CCOC3=O)nc(N3CCOCC3)n2)c(C(F)(F)F)n1 [Example 11, reference compound]
## Task Select the item whose pIC50 value is smaller, choosing between P and Q . Output the label that corresponds to your choice.
## Result Q

====

# target_under_test: UniProt P48736
measured_quantity: IC50 (µM)

Use these answered entries as a reference point.
>  <compound>
C[C@H]1[C@H](CO)OC(=O)N1c1cc(-c2cnc(N)nc2C(F)(F)F)nc(N2CCOCC2)n1

>  <IC50 / µM>
0.338

$$$$
>  <compound>
C[C@H]1[C@@H](CCO)OC(=O)N1c1cc(-c2cnc(N)nc2C(F)(F)F)nc(N2CCOCC2)n1

>  <IC50 / µM>
0.207

$$$$
>  <compound>
COC[C@H]1COC(=O)N1c1cc(-c2cnc(N)nc2C(F)(F)F)nc(N2CCOCC2)n1

>  <IC50 / µM>
0.329

$$$$

a. C[C@@H]1OC(=O)N(c2cc(-c3cnc(N)nc3C(F)(F)F)nc(N3CCOCC3)n2)[C@H]1CO
b. C[C@@H](O)C[C@H]1OC(=O)N(c2cc(-c3cnc(N)nc3C(F)(F)F)nc(N3CCOCC3)n2)[C@H]1C (single isomer, unassigned)
c. C[C@H]1OC(=O)N(c2cc(-c3cnc(N)nc3C(F)(F)F)nc(N3CCOC[C@@H]3C)n2)[C@H]1CO
d. Nc1ncc(-c2cc(N3C(=O)OC4C(O)CCC43)nc(N3CCOCC3)n2)c(C(F)(F)F)n1 (single isomer, unassigned) [Example 22A]
## Task Order each entry by recorded IC50, climbing from the minimum. Field: ranking. Enter the labels in the order requested.
## Result d, c, a, b

====

# target_under_test: human PI3Kα (Homo sapiens)
# Construct: made in house
# procedure_details: Biochemical PI3Kalpha (KinaseGlo luminescent kinase assay)
# run_conditions: a different, separate measurement; read-out: PI3Ka IC50, different, separate measurement (footnote)
Listing: IC50 of selected molecules

>  <molecule>
C[C@H](O)CC1OC(=O)N(c2cc(-c3cnc(N)nc3C(F)(F)F)nc(N3CCOCC3)n2)[C@H]1C (single isomer, unassigned)

>  <IC50>
< 3 nM

$$$$

## Task Please look up its IC50: C[C@H]1C(CC(C)(C)O)OC(=O)N1c1cc(-c2cnc(N)nc2C(F)(F)F)nc(N2CCOCC2)n1 (mixture of isomers)
## Result < 3 nM

====

# target_under_test: human PI3Kδ (Homo sapiens, UniProt O00329)
# Sequence (O00329 2-1044 limits assumed): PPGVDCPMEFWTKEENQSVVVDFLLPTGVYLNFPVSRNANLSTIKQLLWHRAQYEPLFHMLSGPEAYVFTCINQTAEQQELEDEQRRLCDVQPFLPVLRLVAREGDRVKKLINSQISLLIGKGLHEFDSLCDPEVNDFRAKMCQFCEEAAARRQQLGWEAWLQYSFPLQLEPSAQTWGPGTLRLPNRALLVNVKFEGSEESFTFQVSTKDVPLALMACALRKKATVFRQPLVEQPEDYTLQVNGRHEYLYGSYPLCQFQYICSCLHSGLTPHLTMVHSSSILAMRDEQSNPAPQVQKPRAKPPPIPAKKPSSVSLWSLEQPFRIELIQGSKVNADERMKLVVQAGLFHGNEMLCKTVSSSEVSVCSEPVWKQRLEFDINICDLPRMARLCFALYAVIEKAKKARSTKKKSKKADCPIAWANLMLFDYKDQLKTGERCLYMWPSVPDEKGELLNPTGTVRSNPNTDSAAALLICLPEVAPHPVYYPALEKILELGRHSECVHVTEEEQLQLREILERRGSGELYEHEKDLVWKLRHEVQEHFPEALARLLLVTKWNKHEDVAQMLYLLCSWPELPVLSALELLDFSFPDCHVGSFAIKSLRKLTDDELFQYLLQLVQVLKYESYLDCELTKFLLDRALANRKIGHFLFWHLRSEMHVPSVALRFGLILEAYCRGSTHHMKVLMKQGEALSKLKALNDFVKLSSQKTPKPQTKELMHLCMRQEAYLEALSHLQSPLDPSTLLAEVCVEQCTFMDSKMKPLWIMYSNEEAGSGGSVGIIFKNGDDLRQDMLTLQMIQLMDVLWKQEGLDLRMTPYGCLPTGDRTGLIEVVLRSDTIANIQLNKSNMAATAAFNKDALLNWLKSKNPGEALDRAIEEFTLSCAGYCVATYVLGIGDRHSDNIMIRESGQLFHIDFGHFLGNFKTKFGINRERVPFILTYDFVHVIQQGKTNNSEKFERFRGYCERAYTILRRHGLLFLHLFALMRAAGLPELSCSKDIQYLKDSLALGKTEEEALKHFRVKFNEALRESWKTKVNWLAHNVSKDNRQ
pIC50: −log10 of the molar value.
measured_quantity: pIC50

Use these answered entries as a reference point.
>  <molecule>
C[C@@H](O)C[C@H]1OC(=O)N(c2cc(-c3cnc(N)nc3C(F)(F)F)nc(N3CCOCC3)n2)[C@H]1C (single isomer, unassigned)

>  <pIC50>
8.05

$$$$
>  <molecule>
Nc1ncc(-c2cc(N3C(=O)OC4C(O)CCC43)nc(N3CCOCC3)n2)c(C(F)(F)F)n1 (single isomer, unassigned) [Example 22A]

>  <pIC50>
8.40

$$$$
>  <molecule>
C[C@H]1[C@H](CO)OC(=O)N1c1cc(-c2cnc(N)nc2C(F)(F)F)nc(N2CCOCC2)n1

>  <pIC50>
7.82

$$$$

A. Nc1ncc(-c2cc(N3C(=O)O[C@H]4COC[C@H]43)nc(N3CCOCC3)n2)c(C(F)(F)F)n1
B. C[C@H]1[C@@H](CO)OC(=O)N1c1cc(-c2cnc(N)nc2C(F)(F)F)nc(N2CCOCC2)n1
## Task Pick the one with the larger pIC50: A vs B Output the label that corresponds to your choice.
## Result B

Origin of the recorded values: patent US8865894B2
